Consider the following binders and their measured Kd readings.
- assay_target: T1, hPHD-HD1 complex (hPygo1 PHD 333-402 with hBCL9 HD1) (human, UniProt Q9Y3Y4 333-402; O00512 177-205)
- T1 construct: PHD finger of human Pygo1, amino acids 333-402; also called binary complex; human PHD-HD1 complex; source: E. coli BL21-CodonPlus(DE3)-RIL, coexpressed from a bicistronic vector, purified as a complex; not shown: GST, N-terminal, cleaved; MBP, N-terminal, cleaved
- T1 sequence (looked up) 1: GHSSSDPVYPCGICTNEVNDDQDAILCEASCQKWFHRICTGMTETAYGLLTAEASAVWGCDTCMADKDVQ
- T1 sequence (looked up) 2: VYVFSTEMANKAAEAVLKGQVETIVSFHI
- protocol_summary: ITC; protein dialysed into 100 mM NaCl, 25 mM Tris-HCl (pH 8.0), 10 uM ZnCl2, 2 mM beta-mercaptoethanol; histone peptides with free PHD or PHD-HD1 complex; one-site model
- condition_label: both partners purified
readout_label: Kd (µM)

# binder, recorded_number
records = [
    ("ARTKQTARK (peptide, UniProt P68431 2-10, looked up, dimethyl-lysine at K4, histone H3 tail, 9-mer; the limits follow from the truncated form 'spanning R2-K9 (without A1)'; Only the first seven residues are modelled in the structure; also called 9-mer H3K4me2 peptide) [H3K4me2 9-mer histone H3 tail peptide]", 11),
    ("ARTKQTARKSTGGKAPRK (peptide, UniProt P68431 2-19, looked up, asymmetric dimethyl-arginine at R2 (R2me2a); dimethyl-lysine at K4, histone H3 tail, 18-mer; Only the first seven residues are modelled in the structure; also called 18-mer histone H3 tail carrying both K4me2 and asymmetrically methylated R2 (R2me2a)) [H3R2me2aK4me2 18-mer histone H3 tail peptide]", 2.1),
]
